Below, each entry is listed with its recorded IC50.
- study_system: human alpha1 nicotinic acetylcholine (nACh) receptor (Homo sapiens, UniProt P02708+Q07001)
- Sequence (P02708 21-457): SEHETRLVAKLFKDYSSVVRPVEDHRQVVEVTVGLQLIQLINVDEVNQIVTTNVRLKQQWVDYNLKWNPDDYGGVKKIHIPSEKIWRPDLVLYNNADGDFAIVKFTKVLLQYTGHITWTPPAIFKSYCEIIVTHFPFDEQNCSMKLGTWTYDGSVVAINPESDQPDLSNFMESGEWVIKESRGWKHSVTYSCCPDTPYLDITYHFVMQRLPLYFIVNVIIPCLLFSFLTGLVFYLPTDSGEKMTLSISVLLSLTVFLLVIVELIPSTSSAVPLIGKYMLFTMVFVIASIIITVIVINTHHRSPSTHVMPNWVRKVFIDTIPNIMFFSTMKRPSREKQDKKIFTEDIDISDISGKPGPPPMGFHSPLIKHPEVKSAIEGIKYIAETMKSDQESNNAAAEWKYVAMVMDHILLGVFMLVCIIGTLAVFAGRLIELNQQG
- Sequence (P11230 24-501 partner): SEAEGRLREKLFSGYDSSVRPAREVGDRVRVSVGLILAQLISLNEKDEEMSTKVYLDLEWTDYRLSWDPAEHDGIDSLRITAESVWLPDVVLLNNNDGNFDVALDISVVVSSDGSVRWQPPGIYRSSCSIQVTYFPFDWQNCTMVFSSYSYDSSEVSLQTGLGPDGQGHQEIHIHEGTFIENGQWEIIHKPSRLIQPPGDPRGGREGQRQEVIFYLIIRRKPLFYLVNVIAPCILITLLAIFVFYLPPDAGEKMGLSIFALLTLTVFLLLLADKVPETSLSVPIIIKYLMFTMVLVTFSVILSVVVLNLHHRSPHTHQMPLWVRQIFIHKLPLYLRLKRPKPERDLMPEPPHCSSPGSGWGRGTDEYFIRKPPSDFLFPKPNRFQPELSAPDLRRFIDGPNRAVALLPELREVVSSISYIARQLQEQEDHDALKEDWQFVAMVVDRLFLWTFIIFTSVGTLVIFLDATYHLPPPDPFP
- Sequence (Q07001 22-517): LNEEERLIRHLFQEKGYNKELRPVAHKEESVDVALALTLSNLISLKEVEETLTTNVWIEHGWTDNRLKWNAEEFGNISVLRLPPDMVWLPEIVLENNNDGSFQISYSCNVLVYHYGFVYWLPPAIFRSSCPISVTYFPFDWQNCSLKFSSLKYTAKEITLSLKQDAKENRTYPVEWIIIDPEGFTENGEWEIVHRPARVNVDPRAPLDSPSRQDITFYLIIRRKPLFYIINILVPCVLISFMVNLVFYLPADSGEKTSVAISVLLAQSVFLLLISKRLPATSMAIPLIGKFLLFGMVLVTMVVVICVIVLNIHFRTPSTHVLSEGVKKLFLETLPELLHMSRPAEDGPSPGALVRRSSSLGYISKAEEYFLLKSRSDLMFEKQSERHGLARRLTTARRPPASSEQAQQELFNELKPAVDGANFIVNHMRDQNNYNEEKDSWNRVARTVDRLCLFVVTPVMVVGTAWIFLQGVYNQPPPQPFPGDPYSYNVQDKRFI
- assay_name: Nicotinic acetylcholine receptor antagonism assay, IONFlux automated patch clamp (Example 203)
- protocol_conditions: nAChR antagonism; ACh stimulated; patch clamp
- Source text: Cells expressing human alpha1 nicotinic acetylcholine (nACh) receptor (nAChR) were washed and dissociated using Trypsin containing buffer. Cells were then washed and seeded at a density of 3-5 million cells/mL and allowed to grow for 3 days. […] The receptor was then stimulated via addition of acetylcholine (ACh) and activation of the receptor was monitored via the IONFlux automated patch clamp system. […]

1. CC(C)N(C)[C@@H]1CC[C@H](N2CC[C@H](Nc3ncnc4ccc(C(F)(F)F)cc34)C2=O)[C@H](NC(=O)[C@H]2CC[C@@H](NC(=O)CCOCCOCCNC(=O)CCNC(=O)[C@H]3CC(=O)N(C)[C@@H]3c3cccnc3)CC2)C1 [Example 16] ... > 100 µM
2. CN1C(=O)C[C@H](C(=O)NCCO[C@H]2CC[C@H](OCCCC(=O)N[C@H]3CC[C@H](C(=O)N[C@@H]4C[C@H](NC(C)(C)C)CC[C@@H]4N4CC[C@H](Nc5ncnc6ccc(C(F)(F)F)cc56)C4=O)CC3)CC2)[C@H]1c1cccnc1 [Example 10] ... > 33.3 µM
3. CC(C)N(C)[C@@H]1CC[C@H](N2CC[C@H](Nc3ncnc4ccc(C(F)(F)F)cc34)C2=O)[C@H](NC(=O)[C@H]2CC[C@@H](NC(=O)CCCC(=O)NCCCOCCCNC(=O)[C@H]3CC(=O)N(C)[C@@H]3c3cccnc3)CC2)C1 [Example 18] ... > 100 µM

Please examine the following record next.
The recorded IC50 for CC(C)N(C)[C@@H]1CC[C@H](N2CC[C@H](Nc3ncnc4ccc(C(F)(F)F)cc34)C2=O)[C@H](NC(=O)[C@H]2CC[C@@H](NC(=O)CCCOCCCCOCCNC(=O)[C@H]3CC(=O)N(C)[C@@H]3c3cccnc3)CC2)C1 [Example 122] is > 10 µM

----------
- Test system: endogenous target monocytes in human PBMC
- assay_name: PBMC ex vivo monocyte depletion flow cytometry assay (Example 200)
- Format: cell-based
- protocol_conditions: with anti-cotinine antibody SEQ ID NO: 11/12, 18-24 hours, read-out: Ex Vivo Depletion Assay pEC50 (converted)
Below, each entry is listed with its recorded EC50.
Value expressed in nM; do not type the unit.

Recorded EC50, per entry:
1. CN1C(=O)C[C@H](C(=O)NCCCOCCCNC(=O)CCCC(=O)NC2CCC(C(=O)N[C@@H]3C[C@H](NC(C)(C)C)CC[C@@H]3N3CC[C@H](Nc4ncnc5ccc(C(F)(F)F)cc45)C3=O)CC2)[C@H]1c1cccnc1 (stereo partly drawn) ... 0.631
2. CC(C)N(C)[C@@H]1CC[C@H](N2CC[C@H](Nc3ncnc4ccc(C(F)(F)F)cc34)C2=O)[C@H](NC2CCN(C(=O)CCOCCOCCOCCOCCNC(=O)[C@H]3CC(=O)N(C)[C@@H]3c3cccnc3)CC2)C1 ... 1.58
3. CC(C)N(CCOCCOCCC(=O)N[C@H]1CC[C@@H](C(=O)N[C@@H]2C[C@H](N(C)C(C)C)CC[C@@H]2N2CC[C@H](Nc3ncnc4ccc(C(F)(F)F)cc34)C2=O)CC1)C(=O)CCNC(=O)[C@H]1CC(=O)N(C)[C@@H]1c1ccccc1 ... 0.398
4. CN1C(=O)C[C@H](C(=O)NCCOCCOCCOCCOCCOCCOCCC(=O)N[C@@H]2C[C@H](NC(C)(C)C)CC[C@@H]2N2CC[C@H](Nc3ncnc4ccc(C(F)(F)F)cc34)C2=O)[C@H]1c1cccnc1 ... 1.58
5. CC(C)N(C)[C@@H]1CC[C@H](N2CC[C@H](Nc3ncnc4ccc(C(F)(F)F)cc34)C2=O)[C@H](NC(=O)C2CCN(C3CCN(C(=O)CCCCCCCNC(=O)[C@@H]4CC(=O)N(C)[C@H]4c4cccnc4)CC3)CC2)C1 ... 0.501

Please examine the following record next.
The recorded EC50 for CC(C)N(C)[C@@H]1CC[C@H](N2CC[C@H](Nc3ncnc4ccc(C(F)(F)F)cc34)C2=O)[C@H](NC(=O)C2CCC(N3CCC(S(=O)(=O)NCCCCCCNC(=O)[C@H]4CC(=O)N(C)[C@@H]4c4cccnc4)CC3)CC2)C1 (single isomer, unassigned) is 0.251

----------
- study_system: human alpha1 nicotinic acetylcholine (nACh) receptor (Homo sapiens, UniProt P02708+Q07001)
- assay_name: Nicotinic acetylcholine receptor antagonism assay, IONFlux automated patch clamp (Example 203)
- protocol_conditions: nAChR antagonism; ACh stimulated; patch clamp
- From the text: Cells expressing human alpha1 nicotinic acetylcholine (nACh) receptor (nAChR) were washed and dissociated using Trypsin containing buffer. Cells were then washed and seeded at a density of 3-5 million cells/mL and allowed to grow for 3 days. […] The receptor was then stimulated via addition of acetylcholine (ACh) and activation of the receptor was monitored via the IONFlux automated patch clamp system. […]
Below, each entry is listed with its recorded IC50.

The recorded IC50 for CC(C)N(C)[C@@H]1CC[C@H](N2CC[C@H](Nc3ncnc4ccc(C(F)(F)F)cc34)C2=O)[C@H](NC(=O)c2ccc(N3CCC(C(=O)NCCOCCOCCNC(=O)[C@H]4CC(=O)N(C)[C@@H]4c4cccnc4)CC3)cc2)C1 [Example 130] is > 10 µM

The recorded IC50 for CC(C)N(C)[C@@H]1CC[C@H](N2CC[C@H](Nc3ncnc4ccc(C(F)(F)F)cc34)C2=O)[C@H](NC(=O)[C@H]2CC[C@@H](NC(=O)CCCO[C@H]3CC[C@H](NC(=O)CCNC(=O)[C@@H]4CC(=O)N(C)[C@H]4c4cccnc4)CC3)CC2)C1 [Example 52] is > 33.3 µM

The recorded IC50 for CN1C(=O)C[C@H](C(=O)NCCOCCOCCOCCOCCOCCOCCC(=O)N[C@@H]2C[C@H](NC(C)(C)C)CC[C@@H]2N2CC[C@H](Nc3ncnc4ccc(C(F)(F)F)cc34)C2=O)[C@H]1c1cccnc1 [Example 38] is > 10 µM

The recorded IC50 for CC(C)N(C)[C@@H]1CC[C@H](N2CC[C@H](Nc3ncnc4ccc(C(F)(F)F)cc34)C2=O)[C@H](NC(=O)[C@H]2CC[C@H](NC(=O)CCOC[C@H]3CC[C@H](COCCNC(=O)[C@H]4CC(=O)N(C)[C@@H]4c4cccnc4)CC3)CC2)C1 [Example 53] is > 11.1 µM

The recorded IC50 for CC(C)N(C)[C@@H]1CC[C@H](N2CC[C@H](Nc3ncnc4ccc(C(F)(F)F)cc34)C2=O)[C@H](NC(=O)CCOCCNC(=O)[C@H]2CC[C@@H](NC(=O)COCCNC(=O)[C@H]3CC(=O)N(C)[C@@H]3c3cccnc3)CC2)C1 [Example 107] is > 10 µM

The recorded IC50 for CC(C)N(C)[C@@H]1CC[C@H](N2CC[C@H](Nc3ncnc4ccc(C(F)(F)F)cc34)C2=O)[C@H](NC(=O)[C@H]2CC[C@@H](CC(=O)CCCOC[C@H]3CC[C@H](COCCNC(=O)[C@H]4CC(=O)N(C)[C@@H]4c4cccnc4)CC3)CC2)C1 [Example 60] is > 10 µM

The recorded IC50 for CC(C)N(C)[C@@H]1CC[C@H](N2CC[C@H](Nc3ncnc4ccc(C(F)(F)F)cc34)C2=O)[C@H](NC(=O)[C@H]2CC[C@H](NC(=O)CCCC(=O)NCCCOCCCNC(=O)[C@H]3CC(=O)N(C)[C@@H]3c3cccnc3)CC2)C1 [Example 19] is > 100 µM

The recorded IC50 for CC(C)N(C)[C@@H]1CC[C@H](N2CC[C@H](Nc3ncnc4ccc(C(F)(F)F)cc34)C2=O)[C@H](NC(=O)[C@H]2CC[C@H](C3CCN(C(=O)CCOCCOCCNC(=O)[C@H]4CC(=O)N(C)[C@@H]4c4cccnc4)CC3)CC2)C1 [compound 73] is > 10 µM

The recorded IC50 for CC(C)N(C)[C@@H]1CC[C@H](N2CC[C@H](Nc3ncnc4ccc(C(F)(F)F)cc34)C2=O)[C@H](NC(=O)[C@H]2CC[C@H](NC(=O)CCOCCOCCOCCNC(=O)[C@H]3CC(=O)N(C)[C@@H]3c3cccnc3)CC2)C1 [Example 30] is > 10 µM

Value source: patent US20250136722A1
